This collection of values is drawn from PubChem BioAssay (NCI).

Quick reference: GI50 of the listed items.
tested on: OVCAR-4 ovarian; test: NCI tumour cell line growth inhibition, 48 h

Molecule | GI50
O=C(Nc1ccc(N2CCNCC2)cc1)c1[nH]ncc1Nc1cc(Oc2ccccc2)ncn1 | 2.59 µM

Ask: Report GI50 for CCCCC/C(C=C(C#N)C#N)=C/c1ccccc1 tested on OVCAR-4 ovarian.
Reply: 7.74 µM

Ask: Now consider CC1=C(C(=O)Nc2ccc3[nH]ncc3c2)C(c2ccc3ccccc3c2)CC(=O)N1 (centres undefined) .
Reply: 13.4 µM

Ask: Next record, please: O=C1OCc2c1cc1ccc(O)c(OC3OC(CO)C(O)C(O)C3O)c1c2-c1ccc2c(c1)OCO2 (centres undefined)
Reply: 56.2 µM

Ask: One more molecule: COC(=O)CCCCN=Cc1c(O)c(O)c(C(C)C)c2cc(C)c(-c3c(C)cc4c(C(C)C)c(O)c(O)c(C=NCCCCC(=O)OC)c4c3O)c(O)c12
Reply: 0.886 µM

Ask: COc1cc(OC)cc(-c2ccc(-c3ccc(C(=N)N)o3)o2)c1 , same question.
Reply: 3.51 µM

Ask: Now consider COc1ccc(/C(=C2\O[C@@H]([C@H]3COC(C)(C)O3)[C@H]3OC(C)(C)O[C@@H]23)c2cc(OC)c(OC)c(OC)c2)cc1O .
Reply: 9.18 µM

Ask: Again, but for Cc1ccc(-c2c3c([nH]c(=O)c2C#N)-c2cc(F)ccc2OC3)cc1
Reply: > 100 µM

Ask: Another molecule: Cc1ccc2c(c1)C(=O)/C(=C/c1ncc([N+](=O)[O-])n1C)O2
Reply: 2.15 µM

---

Listed here: items and their measured TGI.
system: NCI/ADR-RES ovarian; test: NCI tumour cell line growth inhibition, 48 h

Compound | TGI
Cc1nnc(Nc2ccccc2)o1 | > 100 µM
CCOP(=O)(OCC)/C(C#N)=C/c1cnc(-c2ccccc2)[nH]1 | > 100 µM
CCOc1cc(NC(C)=O)ccc1C(=O)NNC(=O)c1ccccc1OC(C)=O | > 78.7 µM
CN1CCN(Cc2ccc(NC(=O)c3cncc(C#Cc4cnc(N)c5ccc(C#N)cc45)c3)cc2C(F)(F)F)CC1 | 2.03 µM
Cc1nc2c(sc(=S)n2-c2ccccc2)c2nc3ncccc3n12 | > 100 µM

Ask: Quick one: TGI of COCOC1/C=C/CCCCC2=C(C)C=C(C1)O2 (stereo unspecified) ?
Reply: > 100 µM

Ask: Can you check C[C@]12CC[C@H](O)CC1=CC[C@@H]1[C@@H]2CC[C@]2(C)C(c3cccnc3)=CC[C@@H]12 next?
Reply: > 100 µM

---

test system: SK-MEL-2 melanoma; assay: NCI tumour cell line growth inhibition, 48 h
Observed property: TGI

Record excerpt, results attached:
Compound | TGI
CC(CN1c2ccccc2Sc2ccccc21)N(C)C (stereo not given) | 34.7 µM
N#C/C(=C1C=C/C(=N/O)C(Br)=C/1)c1ccccc1 | 13.9 µM
CNC(=O)OCc1c(COC(=O)NC)c(-c2ccc(Cl)c(Cl)c2)n2c1SCC2 | 26.7 µM
O=NN(Cc1ccc(Cl)cc1)C(C(=O)O)c1ccccc1 (stereo not given) | > 100 µM
O=C(O)c1cc2c(cc1CC(Cc1ccc3c(c1)CCC3)C(=O)O)CCC2 (stereo not given) | > 100 µM

API: the following record is the query input.
Ask: // TGI lookup, key: OC1C2[C@@H](O)CCCN2C[C@@H](O)[C@H]1O (stereo not given in full)
Reply: > 100 µM
